molecular target: HIF-PH2 (EGLN1) (Homo sapiens, UniProt Q9GZT9); construct: made in house; host or cells: insect Hi5 cells; experiment: HIF-PH assay (14CO2 capture, peptide-dependent turnover); type: biochemical; details: Concentration 50 μM
Sequence (Q9GZT9 whole entry, species assumed): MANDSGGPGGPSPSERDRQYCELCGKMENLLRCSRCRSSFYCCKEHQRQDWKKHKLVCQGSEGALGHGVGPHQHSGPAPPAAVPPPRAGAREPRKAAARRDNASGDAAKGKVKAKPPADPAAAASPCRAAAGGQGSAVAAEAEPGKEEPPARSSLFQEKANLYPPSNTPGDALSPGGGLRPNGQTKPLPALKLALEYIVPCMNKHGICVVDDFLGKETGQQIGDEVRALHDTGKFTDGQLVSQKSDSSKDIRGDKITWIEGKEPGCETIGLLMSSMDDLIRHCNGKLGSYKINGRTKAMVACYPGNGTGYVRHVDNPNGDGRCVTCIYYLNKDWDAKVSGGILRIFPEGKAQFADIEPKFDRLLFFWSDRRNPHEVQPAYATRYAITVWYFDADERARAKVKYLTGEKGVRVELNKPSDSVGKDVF
endpoint-label: inhibition at 50 µM (%)
Give the value in % but do not write % after it.

Past entries and their recorded results:
C[C@H](NC(=O)c1c(O)c2cccn2n(Cc2ccc(C(F)(F)F)cc2)c1=O)C(=O)O [Example 24]	98
CCCCCCn1c(=O)c(C(=O)NCC(=O)O)c(O)c2cccn21 [Example 20]	97
C[C@H](NC(=O)c1c(O)c2cc(Cl)cn2n(Cc2ccccn2)c1=O)C(=O)O [Example 41]	91

Given the molecule C[C@H](NC(=O)c1c(O)c2cc(Cl)cn2n(Cc2ccc(C(F)(F)F)cc2)c1=O)C(=O)O [Example 23] , what is its reported inhibition at 50 µM?
98

And the next one, O=C(O)CNC(=O)c1c(O)c2cc(Cl)cn2n(Cc2ccc(C(F)(F)F)cc2)c1=O [Example 22] ?
98

And the next one, CCCCn1c(=O)c(C(=O)NCC(=O)O)c(O)c2cccn21 [Example 17] ?
97

And the next one, O=C(O)CNC(=O)c1c(O)c2cc3cc(F)ccc3n2n(Cc2ccc(F)cc2)c1=O [Example 21] ?
99

And the next one, O=C(O)CNC(=O)c1c(O)c2cc(Cl)cn2n(Cc2ccccn2)c1=O [Example 40] ?
95
